Target or system: human complement factor B (CVF-Bb complex) (Homo sapiens (Human), UniProt P00751)
Assay details: Human Complement Factor B ELISA Assay
Assay type: biochemical
Condition label: CVF-Bb complex 3 nM, 1 hour preincubation with compound at room temperature, human C3 substrate 1 μM, C3a quantified by ELISA; read-out: Factor B IC50
List of pIC50 values.
To interpret pIC50, take it as minus log10 of a concentration measured in moles per litre.

Consider the worked cases shown below.
{"Compound": "CC[C@H]1CN(C(=O)/C=C/c2ccc(C#N)cc2)CCN1c1nc(N)c2cc(OC)c(OC)c(F)c2n1", "Assay value": 7.96}
{"Compound": "COc1cc2c(N)nc(N3CCN(C(=O)C[C@@H](NC(C)C)c4ccc(F)c(C#N)c4)CC3)nc2c(F)c1OC", "Assay value": 7.92}
{"Compound": "COc1cc2c(N)nc(N3CCN(C(=O)[C@@H]4CCc5ccccc5[C@@H]4N)C[C@@H]3C)nc2c(F)c1OC", "Assay value": 5.97}

Prompt line: Need pIC50 of COc1cc2c(N)nc(N3CCN(C(=O)C[C@@H](NCCF)c4ccc(F)cc4)CC3)nc2c(F)c1OC , thanks.
Response line: 8.22

Prompt line: Request: COC[C@H]1CN(C(=O)/C=C/C2CC2)CCN1c1nc(N)c2cc(OC)c(OC)c(F)c2n1
Response line: 5.69

Prompt line: Now try COc1cc2c(N)nc(N3CCN(C(=O)/C=C/C4CCC4)C[C@@H]3C)nc2c(F)c1OC .
Response line: 6.72

Prompt line: What do you have for COc1cc2c(N)nc(N3CCN(C(=O)/C=C/c4ccc(F)cc4)CC3)nc2c(Cl)c1OC ?
Response line: 5.84

Prompt line: Also CCCN[C@H](CC(=O)N1CCN(c2nc(N)c3cc(OC)c(OC)c(F)c3n2)CC1)c1ccc(Cl)s1 , if possible.
Response line: 8.10

Prompt line: Same again, this time with COc1cc2c(N)nc(N3CCN(C(=O)c4cc5cc(C#N)ccc5[nH]4)C[C@@H]3c3ccccc3)nc2c(F)c1OC
Response line: 8.30

Prompt line: Then COc1cc2c(N)nc(N3CCN(C(=O)C[C@@H](NC(CF)CF)c4ccc(F)cc4)CC3)nc2c(F)c1OC ?
Response line: 7.40

Prompt line: And for COCCOc1c(OC)cc2c(N)nc(N3CCN(C(=O)/C=C/c4ccc(C#N)cc4)CC3)nc2c1F ?
Response line: 6.64

Prompt line: Do the same for COc1cc2c(N)nc(N3CCN(C(=O)C[C@@H]4CCCN4)CC3)nc2c(F)c1OC please
Response line: 6.85

Prompt line: // next record COc1cc2c(N)nc(N3CCN(C(=O)C[C@@H](N)c4ccccc4)CC3)nc2c(C#N)c1OC
Response line: 6.12

Prompt line: Another compound: COc1cc2c(N)nc(N3CCN(C(=O)c4cc5cc(C#N)ccc5[nH]4)CC3)nc2c(F)c1OC
Response line: 7.70

Prompt line: Another compound: COCCOc1c(OC)cc2c(N)nc(N3CCN(C(=O)C[C@@H](N)c4ccc(C#N)cc4)CC3)nc2c1F
Response line: 6.96

Prompt line: Another compound: COc1cc2c(N)nc(N3CCN(C(=O)CC4CNCCO4)C[C@@H]3c3ccccc3)nc2c(F)c1OC (stereo partly drawn)
Response line: 6.05

Prompt line: Input COc1cc2c(N)nc(N3CCN(C(=O)C[C@@H](N)c4cccc(C)c4)CC3)nc2c(F)c1OC
Response line: 6.66

Prompt line: Try the compound COc1cc2c(N)nc(N3CCN(C(=O)C[C@@H](N)c4ccc(F)cc4)CC3)nc2c(C#N)c1OC
Response line: 7.00

Prompt line: Query COc1cc2c(N)nc(N3CCN(C(=O)C[C@@H](N)c4ccc(F)cc4)CC3)nc2c(F)c1OC next
Response line: 7.40

Prompt line: Same question for COc1cc2c(N)nc(N3CCN(C(=O)c4cc5cc(F)ccc5[nH]4)CC3)nc2c(F)c1OC please.
Response line: 7.15

Prompt line: Another: COCCOc1c(OC)cc2c(N)nc(N3CCN(C(=O)C[C@@H](N)c4ccc(C#N)cc4)C[C@@H]3C)nc2c1F
Response line: 7.15

Prompt line: Cool, now CC[C@H]1CN(C(=O)C[C@@H]2CCCCN2)CCN1c1nc(N)c2cc(OC)c(OC)c(F)c2n1
Response line: 6.11

====

Here the recorded pIC50 is given for each entry.
Target or system: human complement factor B (CVF-Bb complex) (Homo sapiens (Human), UniProt P00751)
Assay details: Human Complement Factor B ELISA Assay
Assay type: biochemical
Condition label: CVF-Bb complex 3 nM, 1 hour preincubation with compound at room temperature, human C3 substrate 1 μM, C3a quantified by ELISA; read-out: Factor B IC50
Where a name gives a salt, the structure may show the parent alone.
Quick note: pIC50 values are minus log10 of concentrations in mol/L.

In the examples that follow, each entry is paired with its recorded pIC50.
{"Compound": "COc1cc2c(N)nc(N3CCN(C(=O)C[C@@H](N)c4ccc(C)s4)CC3)nc2c(F)c1OC", "pIC50": 6.74}
{"Compound": "COCCOc1c(OC)cc2c(N)nc(N3CCN(C(=O)C[C@@H]4CCCCN4)CC3)nc2c1F", "pIC50": 5.00}
{"Compound": "COc1cc2c(N)nc(N3CCN(C(=O)C[C@@H](N)c4ccc(F)cc4)CC3)nc2c(Cl)c1OC", "pIC50": 5.99}
{"Compound": "COc1cc2c(N)nc(N3CCN(C(=O)C[C@@H](N)CC(C)C)CC3)nc2c(F)c1OC", "pIC50": 6.17}
{"Compound": "CN[C@H](CC(=O)N1CCN(c2nc(N)c3cc(OC)c(OC)c(F)c3n2)CC1)c1ccccc1", "pIC50": 6.64}
{"Compound": "COc1cc2nc(N3CCN(C(=O)/C=C/C4CC4)CC3)nc(N)c2c(Cl)c1OC", "pIC50": 5.48}

Please look at the following compound next.
Prompt line: What value of measured pIC50 is listed for [2H]C([2H])([2H])N[C@H](CC(=O)N1CCN(c2nc(N)c3cc(OC)c(OC)c(F)c3n2)CC1)c1ccccc1 [Example 79, hydrochloride] ?
Response line: 7.30

====

Target or system: human complement factor B (CVF-Bb complex) (Homo sapiens (Human), UniProt P00751)
Assay details: Human Complement Factor B ELISA Assay
Type: biochemical
Condition label: CVF-Bb complex 3 nM, 1 hour preincubation with compound at room temperature, human C3 substrate 1 μM, C3a quantified by ELISA; read-out: Factor B IC50
Where a name gives a salt, the structure may show the parent alone.
Catalogue of compounds with associated log10(IC50)
Hey, these are logged values: log10 of IC50, nM being the unit before logging.

{"Compound": "COc1cc2c(N)nc(N3CCN(C(=O)C[C@@H](N)c4ccccc4)CC3)nc2c(Br)c1OC [Example 81]", "Observed property": "log10(IC50)", "Assay value": 2.71}
{"Compound": "COc1cc2c(N)nc(N3CCN(C(=O)C[C@@H](N)c4cccc(F)c4)CC3)nc2c(F)c1OC [Example 45]", "Observed property": "log10(IC50)", "Assay value": 1.70}
{"Compound": "COc1cc2c(N)nc(N3CCN(C(=O)c4cc5ccccc5[nH]4)CC3)nc2c(F)c1OC [Example 17]", "Observed property": "log10(IC50)", "Assay value": 2.53}
{"Compound": "[2H]C([2H])([2H])N[C@H](CC(=O)N1CCN(c2nc(N)c3cc(OC)c(OC)c(F)c3n2)CC1)c1ccc(F)cc1 [Example 80, hydrochloride]", "Observed property": "log10(IC50)", "Assay value": 0.78}
{"Compound": "COc1cc2nc(N3CCN(C(=O)/C=C/C4CC4)CC3)nc(N)c2c(F)c1OC [Example 12]", "Observed property": "log10(IC50)", "Assay value": 2.15}

Prompt line: # query: log10(IC50) of entry COc1cc2c(N)nc(N3CCN(C(=O)/C=C/C4CC4)CC3)nc2c(C#N)c1OC [Example 5]
Response line: 2.64

Prompt line: // repeat for COc1cc2c(N)nc(N3CCN(C(=O)C[C@@H]4CC[C@H](c5ccccc5)N4)CC3)nc2c(F)c1OC [Example 111] and report
Response line: 2.58

Prompt line: Lookup CCN[C@H](CC(=O)N1CCN(c2nc(N)c3cc(OC)c(OC)c(F)c3n2)CC1)c1ccc(F)cc1 [Example 84]
Response line: 0.78

Prompt line: Record: CCC[C@H]1CN(C(=O)c2cc3cc(C#N)ccc3[nH]2)CCN1c1nc(N)c2cc(OC)c(OC)c(F)c2n1 [Example 26]
Response line: 1.04

Prompt line: Next entry: COc1cc2c(N)nc(N3CCN(C(=O)/C=C/C4CC4)CC3)nc2c(Cl)c1OC [Example 13]
Response line: 3.02

Prompt line: Now try COc1cc2c(N)nc(N3CCN(C(=O)c4cc5cc(C#N)ccc5[nH]4)C[C@@H]3C)nc2c(F)c1OC [Example 23] .
Response line: 1.18

Prompt line: Try the compound COc1cc2c(N)nc(N3CCN(C(=O)c4cc5cc(F)ccc5[nH]4)C[C@@H]3C)nc2c(F)c1OC [Example 24]
Response line: 1.95

Prompt line: Queued: COc1cc2c(N)nc(N3CCN(C(=O)C[C@@H]4CCCNC4)C[C@@H]3c3ccccc3)nc2c(F)c1OC [Example 122]
Response line: 2.30

Prompt line: How about COc1cc2c(N)nc(N3CCN(C(=O)/C=C/c4ccc(C#N)cc4)CC3)nc2c(F)c1OC [Example 2] ?
Response line: 1.20

Prompt line: What about this compound? CC[C@H]1CN(C(=O)C[C@@H]2CCCN2)CCN1c1nc(N)c2cc(OC)c(OC)c(F)c2n1 [Example 116]
Response line: 2.73
